Field: Potency. Provide a value for each of the molecules that follow.
assay: Quantitative High-Throughput drug screen in 47 multiple myeloma cell lines against the NCATS MIPE library collection: KMS12BM_JCRB cell viability assay (AID 1918971); settings: KMS12BM myeloma viability, CellTiter-Glo ATP, 48 h; series mostly up to 45.8 µM; also: potency is read from the fitted curve at half-maximal effect; nearly all actives have a fitted effect of over 35% in size
Results filed as inconclusive are left out. Calls of active or inactive are those of the source. Calls follow the shape of the dose curve; as a rule, active = well fitted cell-killing curve with a large enough effect; inconclusive = small, poorly fitted or top-dose-only effect, or effect the other way; inactive = no such curve, though single readings can be large or run the other way.

Field: example entries. Status: answers known.
{"query smiles": "COc1ccc(-c2ccc3ncc4c(c3c2)n(-c2ccc(N3CCNCC3)c(C(F)(F)F)c2)c(=O)n4C)cn1", "result": "0.332 µM (active)"}
{"query smiles": "C[C@H]1COC2=C1C(=O)C(=O)c1c2ccc2c1CCCC2(C)C", "result": "18.7 µM (active)"}
{"query smiles": "CN(C)CCOc1ccc(-c2nc(-c3ccc4c(c3)CCC4=NO)c(-c3ccncc3)[nH]2)cc1", "result": "20.9 µM (active)"}
{"query smiles": "N=C1SC(=Cc2ccc(-c3ccc4c(c3)C(=O)NC4=O)o2)C(=O)N1c1ccc(Br)cc1", "result": "4.18 µM (active)"}
{"query smiles": "Cc1c(C(=O)Nc2ccc(N3C[C@@H](C)O[C@@H](C)C3)nc2)cccc1-c1ccc(OC(F)(F)F)cc1", "result": "18.7 µM (active)"}

Kindly give each listed record's Potency.
1. CN1CCC(COc2cnc(-c3cccc(Cn4nc(-c5cccc(C#N)c5)ccc4=O)c3)nc2)CC1
2. CO[C@H]1/C=C\O[C@@]2(C)Oc3c(C)c(O)c4c(O)c(c(C=NN5CCN(C6CCCC6)CC5)c(O)c4c3C2=O)NC(=O)C(C)=CC=C[C@H](C)[C@H](O)[C@@H](C)[C@@H](O)[C@@H](C)[C@H](OC(C)=O)[C@H]1C
3. CCNC(=O)Nc1ccc(Oc2ncnc(N)c2C=NOC)cc1Cl

1: 13.2 µM (active); 2: 6.62 µM (active); 3: 14.8 µM (active)

###

assay: Quantitative High-Throughput drug screen in 47 multiple myeloma cell lines against the NCATS MIPE library collection: XG6_PLB cell viability assay (AID 1919865); conditions: XG6 myeloma viability, CellTiter-Glo ATP luminescence, 48 h; series mostly up to 45.8 µM; also: nearly all actives have a fitted effect of over 40% in size
Records with an inconclusive call do not appear. Activity calls are given as the source filed them. The call rests on the fitted dose curve; in most records, active means well fitted cell-killing curve with a large enough effect; inconclusive means small, poorly fitted or top-dose-only effect, or effect the other way; inactive means no such curve, though single readings can be large or run the other way.
Choose one outcome from this list and give only that: active, inactive

Observe how each entry below is paired with its result.
{"compound": "CC1CNc2c(cccc2S(=O)(=O)N[C@@H](CCCN=C(N)N)C(=O)N2CC[C@@H](C)C[C@@H]2C(=O)O)C1 (stereo not given in full)", "category label": "active"}
{"compound": "CN1CCC[C@H]1CCO[C@](C)(c1ccccc1)c1ccc(Cl)cc1", "category label": "active"}
{"compound": "Cc1cc(OCCCS(C)(=O)=O)cc(C)c1-c1cccc(COc2ccc3c(c2)OC[C@H]3CC(=O)O)c1", "category label": "active"}
{"compound": "C#CCN(C)CC1=Cc2ccccc2Oc2ccccc21", "category label": "inactive"}
{"compound": "C[C@H]1O[C@@H](n2cc(F)c(=O)[nH]c2=O)[C@H](O)[C@H]1O", "category label": "inactive"}
{"compound": "COc1ccc(CCN(C)CCCOc2ccc(S(=O)(=O)c3[nH]c4ccccc4c3C(C)C)cc2)cc1OC", "category label": "active"}

Please indicate how the test categorized Cc1cc(NC(=O)Nc2ccc(N(C)C)cc2)c2cc(F)cc(F)c2n1 .
inactive

Likewise for N#Cc1ccc(Oc2ccc3c(c2)COB3O)cc1 ?
active

And what about the compound NC(=O)c1nnn(Cc2cc(Cl)c(C(=O)c3ccc(Cl)cc3)c(Cl)c2)c1N ?
active

Can you handle C=C1[C@H](n2cnc3c(=O)[nH]c(N)nc32)C[C@H](O)[C@H]1CO next?
inactive

###

assay: qHTS of pediatric cancer cell lines to identify multiple opportunities for drug repurposing: Confirmatory screen for NB1643 cells (AID 1347109); conditions: NB1643 neuroblastoma cell viability; series mostly up to 45.9 µM; also: nearly all actives have a fitted effect of over 45% in size
Inconclusive results are not listed. The source made the active and inactive calls. Calls follow the shape of the dose curve; as a rule, active = well fitted cell-killing curve with a large enough effect; inconclusive = small, poorly fitted or top-dose-only effect, or effect the other way; inactive = no such curve, though single readings can be large or run the other way.
Log the outcome using a class from active, inactive

Reference set (3 entries):
{"query smiles": "CC(C)CN(C[C@H](O)[C@H](Cc1ccccc1)NC(=O)O[C@H]1CCOC1)S(=O)(=O)c1ccc(N)cc1", "category label": "inactive"}
{"query smiles": "CCC(=O)OCC(=O)[C@@]1(OC(=O)CC)[C@@H](C)C[C@@H]2[C@H]3CCC4=CC(=O)C=C[C@]4(C)[C@@]3(F)[C@@H](O)C[C@@]21C", "category label": "inactive"}
{"query smiles": "Nc1ncnc2c1ncn2[C@@H]1O[C@H](CO)[C@@H](O)[C@@H]1O", "category label": "active"}

Next compound, please.
Which outcome was assigned to Nc1ccc(-c2ccc3ncc4ccc(=O)n(-c5cccc(C(F)(F)F)c5)c4c3c2)cn1 in this test?
active

###

experiment: Quantitative High-Throughput drug screen in 47 multiple myeloma cell lines against the NCATS MIPE library collection: ARP1_JJKsccF8 cell viability assay (AID 1918928; also: nearly all actives have a fitted effect of over 40% in size;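 as to viability: 100% = DMSO only wells and 0% = medium only wells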); conditions: ARP1 myeloma cells viability, CellTiter-Glo ATP, 48 h; series mostly up to 45.8 µM
Results filed as inconclusive are left out. Activity calls are given as the source filed them. Calls come from the whole dose curve; as a rule, active = well fitted cell-killing curve with a large enough effect; inconclusive = small, poorly fitted or top-dose-only effect, or effect the other way; inactive = no such curve, though single readings can be large or run the other way.
Permitted responses: yes = active, no = inactive

{"query smiles": "CC(C)[C@H](O)C(=O)N[C@@H](C)C(=O)N[C@@H]1C(=O)N(C)CCc2ccccc21", "category label": "no"}
{"query smiles": "O=C(O)CCC=CCC[C@@H]1[C@H](N2CCCCC2)[C@@H](O)C[C@@H]1OCc1ccc(-c2ccccc2)cc1", "category label": "no"}
{"query smiles": "COc1cc2ncn(-c3cc(OCc4ccccc4S(C)(=O)=O)c(C#N)s3)c2cc1OC", "category label": "no"}
{"query smiles": "O=S(=O)(O)c1ccc2cc(N=Nc3cc(S(=O)(=O)O)c4cccnc4c3O)ccc2c1", "category label": "yes"}

Which outcome did this test record for the compound C=CCc1cccc(C=NNC(=O)CN2CCN(Cc3ccccc3)CC2)c1O ?
yes

###

test: Quantitative High-Throughput drug screen in 47 multiple myeloma cell lines against the NCATS MIPE library collection: ARD_JJKsccE7 cell viability assay (AID 1918929;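 as to viability: 100% = DMSO-only wells and 0% = media-only wells without cells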); settings: ARD myeloma cell line viability, CellTiter-Glo, 48 h; series mostly up to 45.8 µM
Inconclusive results are not listed. The source made the active and inactive calls. Calls follow the shape of the dose curve; as a rule, active = well fitted cell-killing curve with a large enough effect; inconclusive = small, poorly fitted or top-dose-only effect, or effect the other way; inactive = no such curve, though single readings can be large or run the other way.
Select the correct class. Options are true (1) = active, false (0) = inactive and nothing else.

Use these answered entries as a reference point.
{"compound": "Cc1ccc2c(c1)c1c(n2CCc2ccc(C)nc2)CCN(C)C1", "category label": "false (0)"}
{"compound": "CNC1[C@H](O)C(O[C@@H]2C(O)C(O[C@H]3O[C@H]([C@@H](C)NC)CC[C@H]3N)[C@@H](N)C[C@H]2N)OC[C@]1(C)O (some centres not stated)", "category label": "false (0)"}
{"compound": "N#CC(c1ccnc(NCCc2cccnc2)n1)c1nc2ccccc2s1 (configuration not stated)", "category label": "true (1)"}
{"compound": "COc1cc2ncn(-c3cc(OCc4ccccc4S(C)(=O)=O)c(C#N)s3)c2cc1OC", "category label": "false (0)"}
{"compound": "CC=C(C(=CC)c1ccc(O)cc1)c1ccc(O)cc1", "category label": "true (1)"}
{"compound": "CC[C@]1(O)C[C@H]2CN(CCC3=c4ccccc4=N[C]3[C@@](C(=O)OC)(c3cc4c(cc3OC)N(C)[C@H]3[C@@](O)(C(N)=O)[C@H](O)[C@]5(CC)C=CCN6CC[C@]43[C@@H]65)C2)C1", "category label": "true (1)"}

Which result was noted for this compound in the test: CN1CCC(COc2cnc(-c3cccc(Cn4nc(-c5cccc(C#N)c5)ccc4=O)c3)nc2)CC1
false (0)

Let us now turn to CCCCC(C)(C)[C@H](O)C=C[C@H]1[C@H](O)CC(=O)[C@H]1CC=CCCCC(=O)O
false (0)

###

assay: Quantitative High-Throughput drug screen in 47 multiple myeloma cell lines against the NCATS MIPE library collection: MM1S_ATCC cell viability assay (AID 1918980); details: MM1S myeloma viability, CellTiter-Glo ATP luminescence, 48 h; series mostly up to 45.8 µM; also: nearly all actives have a fitted effect of over 45% in size
Records with an inconclusive call do not appear. Calls of active or inactive are those of the source. The call rests on the fitted dose curve; in most records, active means well fitted cell-killing curve with a large enough effect; inconclusive means small, poorly fitted or top-dose-only effect, or effect the other way; inactive means no such curve, though single readings can be large or run the other way.
Please answer using one outcome listed in t for active, f for inactive

Example results:
{"query smiles": "C[C@@H]1[C@H](C)CC[C@]2(C(=O)O)CC[C@]3(C)C(=CC[C@@H]4[C@@]5(C)CC[C@H](O)C(C)(C)[C@H]5CC[C@]43C)[C@@H]12", "category label": "f"}
{"query smiles": "C[C@H]1[C@H](O)O[C@@H]2O[C@@]3(C)CC[C@@H]4[C@H](C)CC[C@@H]1[C@@]24OO3", "category label": "t"}
{"query smiles": "CC(=O)O[C@]1(C(C)=O)CC[C@H]2[C@@H]3C=C(Cl)C4=CC(=O)[C@@H]5C[C@H]5[C@]4(C)[C@@H]3CC[C@@]21C", "category label": "t"}

Now consider a different compound.
Give the logged outcome of this assay for the following compound: CC(C)N(CCCNC(=O)Nc1ccc(C(C)(C)C)cc1)C[C@H]1O[C@@H](n2cc(Br)c3c(N)ncnc32)[C@H](O)[C@H]1O
t
